testedSystem: Sodium-dependent noradrenaline transporter (Homo sapiens)
Sequence (P23975 whole entry): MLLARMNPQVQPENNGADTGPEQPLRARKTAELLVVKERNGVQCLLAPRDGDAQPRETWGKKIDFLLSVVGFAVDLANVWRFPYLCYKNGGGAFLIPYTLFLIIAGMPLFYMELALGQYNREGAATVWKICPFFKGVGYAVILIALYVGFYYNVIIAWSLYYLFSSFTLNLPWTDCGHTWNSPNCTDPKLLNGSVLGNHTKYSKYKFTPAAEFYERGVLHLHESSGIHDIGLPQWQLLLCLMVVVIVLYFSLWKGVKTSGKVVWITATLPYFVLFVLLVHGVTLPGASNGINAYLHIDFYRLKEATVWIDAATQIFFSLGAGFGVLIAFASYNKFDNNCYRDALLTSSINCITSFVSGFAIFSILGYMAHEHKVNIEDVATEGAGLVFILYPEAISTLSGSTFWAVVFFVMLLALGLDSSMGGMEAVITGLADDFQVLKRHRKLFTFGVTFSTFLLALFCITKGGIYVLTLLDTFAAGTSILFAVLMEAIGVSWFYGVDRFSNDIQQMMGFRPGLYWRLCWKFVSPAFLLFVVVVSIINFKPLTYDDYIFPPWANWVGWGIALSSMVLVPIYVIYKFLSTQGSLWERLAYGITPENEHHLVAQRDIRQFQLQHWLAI
assay: Inhibition of re-uptake of [3H]MPP+ at human NET expressed in HEK293 cells preincubated for 5 mins followed by […] addition measured after 3 min by liquid scintillation counting
Format: cell-based
measurementParameters: read-out: IC50
The entries below are paired with their reported IC50.
outcomeMeasure: IC50 (µM)

- O=c1[nH]nc(C[S+]([O-])C(c2ccccc2)c2ccccc2)s1 (stereo not drawn): 85.7
- COc1cc(C)nc(C[S+]([O-])C(c2ccccc2)c2ccccc2)n1 (stereo not drawn): 228
- [O-][S+](Cc1nc(C(F)(F)F)no1)C(c1ccccc1)c1ccccc1 (stereo not drawn): 71
